protocol: Cynomolgus monkey tolerability, pro-inflammatory proteins analysis, Complement C3 and CRP (Example 34)
Type: in vivo
conditionSet: cynomolgus monkeys, 35 mg/kg subcutaneously, day 44
Method: To evaluate any inflammatory effect of Ionis oligonucleotides in cynomolgus monkeys, blood samples were taken for analysis. The monkeys were fasted overnight prior to blood collection. On day 42 (pre-dose and 24 hours post-dose), approximately 0.8 mL of blood was collected from each animal and put into tubes without anticoagulant for serum separation. […] Complement C3 were measured using a Toshiba 120 FR NEO chemistry analyzer (Toshiba Co., Japan). […]
metric: CRP
Value and unit, in that order.

Below, each entry is followed by its recorded CRP result.
substance	CRP
1198831 (CACTTTTACATTAGGA; chemically modified gapmer, further chemistry not given here) [compound 1198831]	1.1 mg/L
1198440 (AAGTGTATGTCAGAAG; cEt, 2'-MOE, 5-methylcytosine, phosphorothioate modifications, further chemistry not given here) [compound 1198440]	4.8 mg/L

Turning now to a further record.
For 1198728 (TATTAGAGTATGTGGC; modified gapmer, further chemistry not given here) [compound 1198728] , what is its reported CRP?
4.0 mg/L
